Molecular target: Prostaglandin G/H synthase 2 (Homo sapiens)
Experiment: Inhibition of human COX2 at 50 uM using arachidonic acid as substrate by colorimetric assay relative to control
Hi there, I'd appreciate the recorded inhibition for every entry that follows.
Write your answer as a measured quantity: the number, then the unit.

May I ask what inhibition has been recorded for `COc1ccc(-c2noc(CBr)c2-c2ccc(OC)cc2)cc1` ? 63%

May I ask what inhibition has been recorded for `COc1ccc(-c2c(-c3ccc(N)cc3)noc2CC(=O)O)cc1` ? 42%

May I ask what inhibition has been recorded for `COc1ccc(-c2noc(CF)c2-c2ccc(OC)cc2)cc1` ? 85%

May I ask what inhibition has been recorded for `Cc1onc(-c2ccc(S(C)(=O)=O)cc2)c1-c1ccc(F)cc1` ? 52%

May I ask what inhibition has been recorded for `COc1ccc(-c2noc(CCO)c2-c2ccc(OC)cc2)cc1` ? 82%
